Subject of test: T1, recombinant human Aggrecan G1-IGD-G2 (human, UniProt P16112 20-676)
T1 construct: Only the G1-IGD-G2 region was used (R&D Systems 1220-PG is named for the immunogen); also called Hu G1-IGD-G2
Measurement description: SPR (ProteOn), off-rate only indicative
# note: exactly 0.01 s⁻¹ is not below, so it is 0 (no); use 1 (yes) for koff strictly under it

C01010097 (608A05-ALB26) (VHH, not shown: small tags and cut ends) VHH: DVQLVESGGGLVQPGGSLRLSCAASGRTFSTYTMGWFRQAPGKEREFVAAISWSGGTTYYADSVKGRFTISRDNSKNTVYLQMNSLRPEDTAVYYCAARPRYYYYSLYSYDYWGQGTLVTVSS | 1 (yes)
C01010054 (114F08-ALB26) (VHH, not shown: small tags and cut ends, also called C010100054) VHH: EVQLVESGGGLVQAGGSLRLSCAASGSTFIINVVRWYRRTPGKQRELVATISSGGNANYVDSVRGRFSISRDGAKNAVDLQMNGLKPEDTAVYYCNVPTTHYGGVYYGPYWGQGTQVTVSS | 0 (no)
C01010060 (606A07-ALB26) (VHH, not shown: small tags and cut ends) VHH: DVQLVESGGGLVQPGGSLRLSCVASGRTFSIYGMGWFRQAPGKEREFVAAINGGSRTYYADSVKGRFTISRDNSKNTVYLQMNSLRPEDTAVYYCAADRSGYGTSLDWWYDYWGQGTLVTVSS | 0 (no)
C01010094 (604F02-ALB26) (VHH, not shown: small tags and cut ends, also called C010100094) VHH: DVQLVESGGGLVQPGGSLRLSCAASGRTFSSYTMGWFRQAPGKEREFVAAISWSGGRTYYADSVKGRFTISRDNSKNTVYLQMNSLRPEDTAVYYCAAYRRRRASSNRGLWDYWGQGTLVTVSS | 0 (no)
C01010046 (601E08-ALB26) (VHH, not shown: small tags and cut ends) VHH: DVQLVESGGGLVQPGGSLRLSCTASGRTFSSYAVGWFRQAPGKEREFVAAISRSGRSTYYADSVKGRFTISRDNSKNTVYLQMNSLRPEDTAVYYCAAGLSYYSPHAYYDYWGQGTLVTVSS | 1 (yes)
